Numbers sourced from PubChem BioAssay (NCI).

Assignment: determine reported growth for the given compounds.
tested on: SW-620 colon; experiment: NCI-60 one-dose screen, 48 h (100 = growth as untreated, 0 = no growth, -100 = all killed); conditions: 10 µM unless noted
Compounds without any hit were thinned out: in the full panel of roughly 83,000, 20% have a hit. Calls of active or inactive are those of the source. Rule for the calls: active = growth percent below 10; inactive = the rest.

Example entries and their recorded answers appear below.
Indicate its recorded growth; the compound in question is COc1cc2c(c(OC)c1OC)C(=O)CC(c1cccc(NC(=O)c3ccc(C#N)cc3)c1)O2 (centres undefined)
95.9% (inactive)

Indicate its recorded growth; the compound in question is CCN(CC)CCN1C(=O)c2cccc3c(/C=C/CN4C(=O)c5cccc6cccc(c56)C4=O)ccc(c23)C1=O
90.4% (inactive)

Indicate its recorded growth; the compound in question is COc1cnc2c(c1)C(=O)c1c-2n(CCCCl)c(=O)c2ccncc12
36.3% (inactive)

Next item in the queue.
Indicate its recorded growth; the compound in question is COC1=C(C)C(=O)N2[C@@H]1[C@H](c1ccccc1)OC21C=CC(=O)C=C1
-36% (active)

====

tested on: PC-3 prostate; assay: NCI-60 one-dose screen, 48 h; conditions: 10 µM unless noted
This is part of a sample that, as a whole, favours compounds with a hit. Of some 83,000 tested, about 20% had one in any assay. Activity calls are given as the source filed them. How the source made its calls: active means growth percent below 10; inactive means the rest.
Outcome field: choose from y for active, n for inactive

Use these answered entries as a reference point.
What was the test verdict on COc1ccccc1C(=O)Nc1cccc(NC(=O)c2ccoc2C)c1 ?
n

What was the test verdict on [2H]C([2H])([2H])Oc1ccc(F)cc1/C=C/C(=O)/C=C(/C=C/c1cc(F)ccc1OC([2H])([2H])[2H])OB(F)F ?
n

What was the test verdict on Cc1c2ccncc2c(C)c2c1c1cc(CO)ccc1n2C ?
y

What was the test verdict on COc1ccc(NC(=O)Nc2ccc(OCCCCCC(=O)NO)cc2)cc1 ?
n

Turning now to a further record.
What was the test verdict on CC1=C2[C@@H](CC1)[C@]1(C)O[C@@](c3ccccc3)(C[C@H]1OC(=O)CO)[C@H]2OC(=O)/C=C/c1ccccc1 ?
n

====

test system: A549/ATCC NSCLC; assay: NCI-60 one-dose screen, 48 h (100 = growth as untreated, 0 = no growth, -100 = all killed); details: 10 µM unless noted
About 83,000 compounds went through this panel and 20% of them were active in at least one assay; those are over-represented in the sample as a whole.
So basically: is growth under 70%? Then 1 (yes). Not under? Then 0 (no).

Here's an entry: CC1(C)CC(=O)c2c(nn(-c3ccc(Br)cc3)c2-c2cn(-c3ccccc3)nc2-c2cccnc2)C1 . Is its growth below 70%?
0 (no)

Here's an entry: COc1cc(Cl)c(C)cc1NC(=O)c1cc2ccccc2cc1O . Is its growth below 70%?
1 (yes)

Here's an entry: O=C1c2ccccc2C(=O)c2c1cc1c(c2[N+](=O)[O-])OCO1 . Is its growth below 70%?
1 (yes)

====

system: SN12C renal; experiment: NCI-60 one-dose screen, 48 h (100 = growth as untreated, 0 = no growth, -100 = all killed); conditions: 10 µM unless noted
Compounds without any hit were thinned out: in the full panel of roughly 83,000, 20% have a hit.
Label not met if growth falls below 90%; label met in every other case.

Use these answered entries as a reference point.
Is growth for COc1ccc(-c2cc(-c3ccccc3)nc(N3CCN(CCNc4ccnc5cc(Cl)ccc45)CC3)n2)cc1 at or above 90%?
not met

Is growth for N#Cc1c(-c2ccccc2)nc(SCc2nnc(-c3ccc(Cl)cc3)o2)[nH]c1=O at or above 90%?
met

Is growth for N#Cc1cccc(C2C3=C(COC3=O)N(CCO)c3cc4c(cc32)CCC4)c1 (configuration not stated) at or above 90%?
not met

More entries:
Is growth for CSC1=Nc2c(c(C)c(-c3ccccc3)n2CCCC(=O)O)C2=NC(=O)C[C@H](C)N12 at or above 90%?
met

Is growth for O=C(O)[C@@H](Cc1ccc2ccccc2c1)NC(=O)n1c2ccccc2c2ccccc21 at or above 90%?
not met

====

tested on: NCI-H226 lung; assay: NCI-60 one-dose screen, 48 h; settings: 10 µM unless noted
The panel holds about 83,000 compounds, 20% with a hit somewhere; the sample as a whole holds those more often. Calls of active or inactive are those of the source. The calls were made as follows: active = growth percent below 10; inactive = the rest.
Outcome field: choose from active, inactive

Use these answered entries as a reference point.
What was the test verdict on O=C(O)COc1ccc(Cl)c(Cl)c1 ?
inactive

What was the test verdict on O=C(CSc1nc(-c2ccccc2)cc(=O)[nH]1)Nc1nc(-c2ccccc2)cs1 ?
inactive

What was the test verdict on N#C/C(=C\C=C\c1ccc(-c2cc(Cl)ccc2Cl)o1)c1nc2ccccc2s1 ?
inactive

What was the test verdict on COc1ccc(-c2nc3c(N)c(CO)cnc3s2)cc1 ?
inactive

What was the test verdict on O=C(Nc1ccc(Cl)cc1)Oc1c(Cl)c(Cl)c(Cl)c(Cl)c1Cl ?
inactive

More entries:
What was the test verdict on CCOC(=O)c1cnc2c(N=Nc3ccc(OC)cc3)c(N)nn2c1N ?
inactive

What was the test verdict on NS(=O)(=O)c1ccc(-c2cc(-c3nnc(SCC(=O)Nc4ccc(C(=O)/C=C/c5ccc(Cl)cc5)cc4)n3-c3ccccc3)c3ccccc3n2)cc1 ?
inactive

What was the test verdict on Cc1ccc(/C=C(\C#N)n2nnc3cc(F)c(F)cc32)cc1 ?
inactive

What was the test verdict on CCN1C(=O)N(CC)C2C1NN=c1s/c(=C3\C(=O)N(CCC(C)C)c4ccccc43)c(=O)n12 (stereo not given) ?
inactive

What was the test verdict on C/C(=N\O)[C@@H]1CC[C@]2(CO)CC[C@]3(C)[C@H](CC[C@@H]4[C@@]5(C)CCCNC(C)(C)[C@@H]5CC[C@]43C)[C@@H]12 ?
inactive

====

system: T-47D breast; assay: NCI-60 one-dose screen, 48 h (100 = growth as untreated, 0 = no growth, -100 = all killed); conditions: 10 µM unless noted
Compounds without any hit were thinned out: in the full panel of roughly 83,000, 20% have a hit.
Assignment: determine reported growth for the given compounds.
Answers are plain numbers, in %.

Example entries and their recorded answers appear below.
Indicate its recorded growth; the compound in question is Cc1nc2cc(O)c(O)cc2cc1Oc1ccc(NC(=O)Nc2ccc(Cl)c(Cl)c2)cc1
62.2

Indicate its recorded growth; the compound in question is O=C(CCCCCCN1CC(=O)N2[C@H](c3ccc(Cl)cc3)c3[nH]c4ccccc4c3C[C@@H]2C1=O)NO
25.9

Indicate its recorded growth; the compound in question is [2H]C([2H])([2H])Oc1ccc(F)cc1/C=C/C(=O)/C=C(O)/C=C/c1cc(F)ccc1OC([2H])([2H])[2H]
73.5

Indicate its recorded growth; the compound in question is CCN(CC)CCCOc1ccc2ncnc(Nc3ccc(Oc4cccc(C(F)(F)F)c4)c(Cl)c3)c2c1
18.7

Indicate its recorded growth; the compound in question is O=C1Nc2c(C(=O)O)cccc2/C1=N/c1n[nH]c(=S)s1
68.4

For the 2 compounds below, give their growth values.
1. O=C(CCSc1nnc2n(Cc3ccccc3)c(=O)c3c4c(sc3n12)CCCC4)N1CCN(c2ccccc2)CC1
2. Cc1ccc(/C=C/C(=O)c2ccc(-n3cc(CN4CCN(c5cc6c(cc5F)c(=O)c(C(=O)O)cn6C5CC5)CC4)nn3)cc2)cc1

[101, 86.7]

====

test system: A498 renal; test: NCI-60 one-dose screen, 48 h (100 = growth as untreated, 0 = no growth, -100 = all killed); settings: 10 µM unless noted
The panel holds about 83,000 compounds, 20% with a hit somewhere; the sample as a whole holds those more often. Active and inactive are the calls of the source. How the source made its calls: active means growth percent below 10; inactive means the rest.
quantity measured: growth

For the 3 compounds below, give their growth values.
1. Cc1ccc(N2C(=O)CCC2=O)cc1
2. COc1cc2c(c(OC)c1OC)C(=O)CC(c1cccc(NC(=O)c3ccc(C#N)cc3)c1)O2 (stereo not drawn)
3. Cc1nnc(-c2ccc3c(c2)nc(/C=C/c2ccccc2)n3C2CCCCC2)o1

1. 82.3% (inactive)
2. 82.2% (inactive)
3. 97.8% (inactive)

====

test system: UACC-257 melanoma; test: NCI-60 one-dose screen, 48 h; conditions: 10 µM unless noted
The panel holds about 83,000 compounds, 20% with a hit somewhere; the sample as a whole holds those more often. Calls of active or inactive are those of the source. How the source made its calls: active means growth percent below 10; inactive means the rest.
Outcome field: choose from active, inactive

What was the test verdict on CC1(C)CC(=O)c2c(nn(-c3ccc(Br)cc3)c2-c2cn(-c3ccccc3)nc2-c2cccnc2)C1 ?
inactive

What was the test verdict on CCN1C(=O)N(CC)C2C1NN=c1s/c(=C\c3ccc(C(F)(F)F)cc3)c(=O)n12 (stereo not drawn) ?
inactive

What was the test verdict on O=C(c1c[nH]c2ccccc12)c1n[nH]c(=S)n1-c1cccc(Br)c1 ?
inactive

What was the test verdict on CC1=CCC(OC(=O)C(C)(C)CC(O)(C(C)O)C(O)C2(C)C=CC(Cc3ccc(C(C)C)cc3)(C(C)C)CC2)(C(C)C)CC1 (stereo not drawn) ?
inactive

What was the test verdict on O=C(Oc1ccc(CCl)cc1)c1ccccc1 ?
active

What was the test verdict on O=c1c2c3c(sc2n2c(-c4cc(-c5ccccc5)no4)nnc2n1Cc1ccccc1)CCCC3 ?
inactive

What was the test verdict on Cn1cc(-c2csc(-c3cn(CCCN4CCOCC4)c4ccccc34)n2)c2cccnc21 ?
inactive

What was the test verdict on Cc1cccc[n+]1C1c2ccccc2-c2ccccc21 ?
inactive

More entries:
What was the test verdict on CCNc1nc(O)c(/C=C2\C=Nc3ncccc32)s1 ?
active

What was the test verdict on C/C(=N\O)[C@@H]1CC[C@]2(CO)CC[C@]3(C)[C@H](CC[C@@H]4[C@@]5(C)CCCNC(C)(C)[C@@H]5CC[C@]43C)[C@@H]12 ?
inactive

What was the test verdict on CCO/C=N/C1=C(C#N)C(c2ccc(F)cc2)c2sc3c(F)cccc3c2O1 (stereo not drawn) ?
inactive

What was the test verdict on O=S(=O)(Oc1ccc(Br)cc1)c1ccc(Cl)cc1 ?
inactive
